- assay target: Fes (UniProt P07332)
- Sequence (P07332 whole entry, looked up): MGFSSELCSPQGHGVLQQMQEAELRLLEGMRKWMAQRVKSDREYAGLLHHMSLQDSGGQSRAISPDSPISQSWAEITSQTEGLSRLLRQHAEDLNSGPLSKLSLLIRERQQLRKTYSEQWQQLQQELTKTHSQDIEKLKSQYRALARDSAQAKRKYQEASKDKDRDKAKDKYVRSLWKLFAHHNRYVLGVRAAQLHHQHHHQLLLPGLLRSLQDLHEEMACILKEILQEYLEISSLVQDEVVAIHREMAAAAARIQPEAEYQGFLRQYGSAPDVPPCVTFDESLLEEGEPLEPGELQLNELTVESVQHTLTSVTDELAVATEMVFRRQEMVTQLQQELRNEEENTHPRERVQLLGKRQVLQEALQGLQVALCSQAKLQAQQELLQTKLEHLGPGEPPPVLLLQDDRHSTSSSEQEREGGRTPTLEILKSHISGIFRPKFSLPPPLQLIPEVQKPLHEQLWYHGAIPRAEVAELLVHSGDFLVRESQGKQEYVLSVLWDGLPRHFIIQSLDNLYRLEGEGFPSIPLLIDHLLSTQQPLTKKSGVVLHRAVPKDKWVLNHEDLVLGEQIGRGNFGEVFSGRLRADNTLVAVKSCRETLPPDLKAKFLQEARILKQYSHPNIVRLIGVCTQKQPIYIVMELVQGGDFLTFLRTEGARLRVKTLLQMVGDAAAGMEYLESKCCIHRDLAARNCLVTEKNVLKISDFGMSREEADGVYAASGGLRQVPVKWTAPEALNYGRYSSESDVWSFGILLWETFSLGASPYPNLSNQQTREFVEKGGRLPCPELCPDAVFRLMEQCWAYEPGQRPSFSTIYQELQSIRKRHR
- assay details: phosphorylation enrichment, bacterial display (enrichment ratio); higher = better substrate or ligand; peptides without Tyr show the background
test readout: phosphorylation enrichment

// below: answered sequences
Input: Please look at this sequence and report its phosphorylation enrichment: CEHRGCLYLAI [TEK_Y897_Y897C]
Output: 1.09

Input: Entry DVLEFCNSKKT [PAK1_Y131_Y131C] needs its phosphorylation enrichment filled in; supply it.
Output: 0.861

Input: Identify phosphorylation enrichment associated with the sequence EFGEVYKGMLK [EPHA2_Y628]
Output: 0.579

---
Input: Identify phosphorylation enrichment associated with the sequence RGDTVYTVNCM [KBTBD13_Y404_R408C]
Output: 1.08

Input: For the sequence ARRHPYFYAPE [ALB_Y172] , give its measured phosphorylation enrichment value.
Output: 0.766

Input: Identify phosphorylation enrichment associated with the sequence FADIAYNFRHG [PAH_Y166_YF]
Output: 0.713

Input: Please give the documented phosphorylation enrichment of FLAVGYHKPHI [IDS_Y225]
Output: 0.799

Input: Supply measured phosphorylation enrichment of PDMHSYMVRYN [GRIN2D_Y732] in your reply.
Output: 1.09

Input: In one line, give reported phosphorylation enrichment of the entry ACLSLYGGFVE [MVD_Y164_R161L] .
Output: 2.02

Input: Fill in phosphorylation enrichment for record SVVVPYQPPEV [TP53_Y220_E221Q]
Output: 0.918

Input: Read off the recorded phosphorylation enrichment for EFISECCGEII [EZH2_Y641_Y641C]
Output: 1.18

Input: Indicate its recorded phosphorylation enrichment; the sequence in question is IINENYDFLKV [NUP98_Y1664_G1669V_YF]
Output: 1.01

Input: Assign phosphorylation enrichment to the following record: GGRKGYGGFSR [RECQL5_Y478_D480G]
Output: 0.491

Input: Report phosphorylation enrichment, nothing else, for this sequence: LTEEKYELKEG [TREM1_Y29]
Output: 1.41

Input: Find the measured phosphorylation enrichment of RQQQDYWLMDV [ANPEP_Y600_I603M] and report it.
Output: 1.01

Input: Input SKQGKYLNWDA [ATM_Y54] , output reported phosphorylation enrichment.
Output: 0.856

Input: Read the entry KRISCYEARYQ [PFKFB3_Y194_S197R] and write its reported phosphorylation enrichment.
Output: 0.746

Input: // fetch phosphorylation enrichment given entry CTTIHYNFMCS [TP53_Y234_N239S_YF]
Output: 0.902

Input: In one line, give reported phosphorylation enrichment of the entry SAPPSYEETVA [LITAF_Y23] .
Output: 1.09

Input: Look up and state reported phosphorylation enrichment for PVQAAYQNVVA [HBB_Y131_K133N]
Output: 0.877

Input: Give recorded phosphorylation enrichment. RIRRRYCQVLN [IQCF1_Y144]
Output: 1.11

Input: Give the measured phosphorylation enrichment for PVQAADQKVVA [HBB_Y131_Y131D]
Output: 1.18

Input: Provide measured phosphorylation enrichment value, entry: VECQVYAEDPF [PCCA_Y401_R399Q_YF]
Output: 1.24

Input: In one line, give reported phosphorylation enrichment of the entry EQWRAYLEGTC [HLA-C_Y183_L180W] .
Output: 1.23

Input: For the sequence REDVFYTSKLW [AKR1C2_Y81_I79V] , report phosphorylation enrichment.
Output: 1.45

###

- System: Fer (mouse)
- assay details: phosphorylation enrichment, bacterial display (enrichment ratio); higher = better substrate or ligand; peptides without Tyr show the background
Response field class: string, computed from recorded phosphorylation enrichment by ranges I = under 0.5, II = from 0.5 up to 0.6, III = 0.6 and over

Input: Pick a category. Item: SVKVYYKKCWF [EPHA7_Y202_S207F]
Output: I

Input: Kindly identify the class of HEEKVYLSRGD [CRACR2A_Y141] .
Output: II

Input: Which class does EYLHKYKGFKI [SYNE1_Y6953_Q6951H] fall in?
Output: I

Input: Categorize the following entry: TVDASYYGGRG [ANTXR2_Y380]
Output: II

Input: Sort KATKGYLDDPT [G6PD_Y322_E317K] into one of the categories.
Output: I

Please find the next sequence below.
Input: Bin? LIHLHYIRKDF [BBS4_Y43_YF]
Output: III

###

- assay target: Grb2 SH2 (UniProt P62993)
- Sequence (P62993 whole entry, looked up): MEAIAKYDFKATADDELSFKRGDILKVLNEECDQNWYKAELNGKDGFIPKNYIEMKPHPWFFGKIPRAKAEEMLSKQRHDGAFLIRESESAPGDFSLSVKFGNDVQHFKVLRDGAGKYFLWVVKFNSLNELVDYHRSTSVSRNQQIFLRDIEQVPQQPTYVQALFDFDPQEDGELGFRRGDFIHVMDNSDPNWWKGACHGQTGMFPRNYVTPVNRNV
- assay details: SH2 binding enrichment of the phosphorylated peptide, bacterial display (enrichment ratio); higher = better substrate or ligand; peptides without Tyr show the background
Values of SH2 binding enrichment greater than or equal to 1 map to 1; values below map to -1.

Input: Dear colleague, could you confirm whether GESKDYALHVG [SVIL_Y185] has SH2 binding enrichment at or above 1?
Output: -1

Others:
Input: Hi, just wondering whether KDLPNYNWNSF [KISS1_Y112] shows SH2 binding enrichment of 1 or higher.
Output: -1

Input: Could you tell me if the measured SH2 binding enrichment of ALIKAYVKAVA [SMN1_Y43_D44V] reaches 1 or more?
Output: -1

Input: # bool: SH2 binding enrichment of NTDETYCIDNK [TUBB3_Y200_E205K] >= 1
Output: -1

###

- System: c-Abl (mouse)
- assay details: phosphorylation enrichment, bacterial display (enrichment ratio); higher = better substrate or ligand; peptides without Tyr show the background
test readout: phosphorylation enrichment
Provide a numeric answer; units are not to be included.

See these solved cases before continuing.
Input: Could you please provide reported phosphorylation enrichment for IIEDPYYGNDS [ACP1_Y132] ? Thanks!
Output: 0.849

Input: Supply measured phosphorylation enrichment of QNTGNYFDLFG [PTPN11_Y62_D61N_YF] in your reply.
Output: 1.28

Input: Tell me measured phosphorylation enrichment for KNKKDYFDMFE [SLC26A3_Y526_YF] please.
Output: 0.882

Input: Fill in phosphorylation enrichment for record DLNATYCTIQG [U2SURP_Y634_R635C]
Output: 0.78

Input: Recall and state the measured phosphorylation enrichment for KRLDGYVLEGW [IGSF9_Y656_R661W] .
Output: 0.532

Input: Return the recorded phosphorylation enrichment value; entry: KQMEQYMSFHK [HCN1_Y417_V414M]
Output: 0.416

Input: Give phosphorylation enrichment for the following sequence: KNRDVYSSDYF [USP24_Y2134]
Output: 0.656

Input: Given the sequence DPEAAYTTRGG [EPHA3_Y779] , write its reported phosphorylation enrichment.
Output: 0.559

Input: Give phosphorylation enrichment for MVIPNYSSWTE [UROC1_Y185_R188W]
Output: 0.999

Input: Please report the measured phosphorylation enrichment for NHQFDYTFHWT [CSNK1A1_Y294_D297H_YF]
Output: 0.803

Further cases:
Input: Tell us which phosphorylation enrichment value is on record for KDHPDYKFPPR [SOX10_Y171_Q174P_YF]
Output: 0.52

Input: Item SPDMLYQYLKQ [RPAP3_Y567] : provide phosphorylation enrichment
Output: 0.856

Input: Give the value of phosphorylation enrichment reported for the following: EYLHKYKGFKI [SYNE1_Y6953_Q6951H]
Output: 0.996

Input: Identify the reported phosphorylation enrichment for the following entry. HFPFQYHRQLF [F12_Y53_YF]
Output: 1.44

###

- System: c-Abl (mouse)
- assay details: phosphorylation enrichment, bacterial display (enrichment ratio); higher = better substrate or ligand; peptides without Tyr show the background
Let's look at some sequences and their measured phosphorylation enrichment.
Enter the number alone.

Input: Quick one: give measured phosphorylation enrichment for AFLEDYFTSTE [SRC_Y522]
Output: 1.31

Input: Answer with reported phosphorylation enrichment of LTVVIYVLIGR [EPHA3_Y561]
Output: 1.9

Input: Give phosphorylation enrichment for LIQRNYKLTAQ [ALPK2_Y1975_A1978T]
Output: 1.2

Input: Please list phosphorylation enrichment recorded for the sequence CQAHGYFCQPI [STK11_Y156_L160P]
Output: 0.783

Input: Recall and state the measured phosphorylation enrichment for LTFHMYADPNF [SOS1_Y618_YF] .
Output: 1.99

Next:
Input: Specify measured phosphorylation enrichment for LYNQDYPIHSV [GATM_Y227] .
Output: 0.86

Input: Please give measured phosphorylation enrichment of the following entry: AQQPIYIRVEG [NLRP7_Y318_V319I]
Output: 0.725

###

- System: AncSZ
- assay details: phosphorylation enrichment, bacterial display (enrichment ratio); higher = better substrate or ligand; peptides without Tyr show the background
test readout: phosphorylation enrichment
Simply state the number, no unit and no words.

Input: Fill in phosphorylation enrichment for record KLFYIYTSGTT [SLC27A4_Y245]
Output: 1.24

###

- assay target: Jak2 (UniProt O60674)
- Sequence (O60674 whole entry, looked up): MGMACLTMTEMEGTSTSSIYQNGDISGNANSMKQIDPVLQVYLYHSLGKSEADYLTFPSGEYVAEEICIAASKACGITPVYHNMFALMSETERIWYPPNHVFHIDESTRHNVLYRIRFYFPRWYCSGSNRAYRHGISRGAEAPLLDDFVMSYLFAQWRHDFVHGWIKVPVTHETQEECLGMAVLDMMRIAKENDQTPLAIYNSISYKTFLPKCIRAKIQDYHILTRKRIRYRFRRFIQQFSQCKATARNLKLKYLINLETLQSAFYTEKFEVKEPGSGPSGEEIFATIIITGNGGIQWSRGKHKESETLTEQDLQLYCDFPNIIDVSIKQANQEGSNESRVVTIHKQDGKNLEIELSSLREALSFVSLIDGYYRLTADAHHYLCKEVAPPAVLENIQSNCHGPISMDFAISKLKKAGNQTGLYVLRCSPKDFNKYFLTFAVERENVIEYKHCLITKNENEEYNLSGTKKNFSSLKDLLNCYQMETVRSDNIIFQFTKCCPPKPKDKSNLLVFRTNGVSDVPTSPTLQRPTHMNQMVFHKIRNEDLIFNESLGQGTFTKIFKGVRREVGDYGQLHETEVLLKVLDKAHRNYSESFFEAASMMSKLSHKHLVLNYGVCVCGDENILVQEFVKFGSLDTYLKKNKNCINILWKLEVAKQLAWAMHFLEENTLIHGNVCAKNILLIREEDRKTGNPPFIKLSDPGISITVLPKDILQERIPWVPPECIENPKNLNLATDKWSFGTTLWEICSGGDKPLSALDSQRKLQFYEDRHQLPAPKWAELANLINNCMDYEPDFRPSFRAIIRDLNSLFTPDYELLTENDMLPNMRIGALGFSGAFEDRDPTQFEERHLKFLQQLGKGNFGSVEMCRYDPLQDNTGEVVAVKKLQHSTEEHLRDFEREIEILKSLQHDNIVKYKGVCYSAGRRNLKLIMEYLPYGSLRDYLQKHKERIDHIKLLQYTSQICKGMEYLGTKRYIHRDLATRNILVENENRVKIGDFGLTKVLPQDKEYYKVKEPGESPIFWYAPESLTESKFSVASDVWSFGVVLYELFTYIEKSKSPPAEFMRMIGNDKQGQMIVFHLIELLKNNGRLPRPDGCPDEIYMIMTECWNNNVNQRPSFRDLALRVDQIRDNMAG
- assay details: phosphorylation enrichment, bacterial display (enrichment ratio); higher = better substrate or ligand; peptides without Tyr show the background
test readout: phosphorylation enrichment
A bare number is all that is needed in reply.

Input: Determine its reported phosphorylation enrichment: RKKEEYKMAPY [F8_Y1990_L1994P]
Output: 1.1

Input: Let me know recorded phosphorylation enrichment for SVKVYYKKCWF [EPHA7_Y202_S207F] , thanks.
Output: 1.08

Input: Note down phosphorylation enrichment recorded for EFFDGYWEFSV [ITGA2B_Y265_G267E_YF]
Output: 3.11

Input: Identify measured phosphorylation enrichment corresponding to GLGVTYEQALA [MAP2_Y996]
Output: 0.724

Input: Complete the entry with phosphorylation enrichment for ESMLRYEVYGG [STOX1_Y607]
Output: 1.3

More entries:
Input: Complete the entry with phosphorylation enrichment for KDGIGYISAAE [CALM2_Y100_N98I]
Output: 0.589
